# ED50 values compiled below
tested on: Mus musculus; assay: Dopamine antagonist activity expressed as inhibition of apomorphine-induced climbing in mice, subcutaneous administration; format: functional; conditions: Mus musculus, sc; read-out: ED50

The reported ED50 of the molecule COc1cc(N)c(Cl)cc1C(=O)NC[C@H]1CCC2CCCCN2C1 (stereo partly drawn) was > 25 mg/kg

Lab note: COc1cc(N)c(Cl)cc1C(=O)NC1CCCN2CCCCC2C1 (single isomer, unassigned; form 1) gave ED50 of > 50 mg/kg

Recorded result, COc1cc(N)c(Cl)cc1C(=O)NC1CCC2CCCCN2CC1 (stereo not drawn) , ED50: > 50 mg/kg

---

tested on: Mus musculus; assay: Dopamine antagonist activity expressed as inhibition of apomorphine-induced climbing in mice, subcutaneous administration; format: functional; conditions: Mus musculus, sc; read-out: ED50
Value Kind: ED50

Would you please look over these solved cases?
[[record]]
compound = "COc1cc(N)c(Cl)cc1C(=O)NC1CC(C)N2CCCCC2C1 (stereo in doubt; 25)"
tgt = "Mus musculus"
experimental_result = "> 30 mg/kg"

[[record]]
compound = "CCCC1CCCC2CC(NC(=O)c3cc(Cl)c(N)cc3OC)CCN12 (centres undefined)"
tgt = "Mus musculus"
experimental_result = "> 10 mg/kg"

[[record]]
compound = "COc1cc(N)c(Cl)cc1C(=O)NC1CCN2CC(C)CCC2C1 (stereo in doubt; 17)"
tgt = "Mus musculus"
experimental_result = "> 10 mg/kg"


Next compound, please.
Record COc1cc(N)c(Cl)cc1C(=O)NC1CCN2CCCC2(C)C1 (centres undefined) / Mus musculus, ED50 recorded as > 30 mg/kg

---

Reported Activity values for the following compounds.
tested on: Rattus norvegicus; assay: Prokinetic activity expressed as stimulation of intragastric pressure in rat at the lowest active dose in mg/kg on subcutaneous administration.; type: functional

Previously resolved entries follow.
[[record]]
compound = "COc1cc(N)c(Cl)cc1C(=O)NCC1CCC2CCCCN21 (stereo in doubt)"
tgt = "Rattus norvegicus"
value_kind = "Activity"
experimental_result = ">1 mg/kg"

[[record]]
compound = "COc1cc(N)c(Cl)cc1C(=O)NC1CC2CCCCN2C1 (single isomer, unassigned; form 1)"
tgt = "Rattus norvegicus"
value_kind = "Activity"
experimental_result = ">10 mg/kg"

[[record]]
compound = "COc1cc(N)c(Cl)cc1C(=O)NC1CC(C)N2CCCCC2C1 (stereo in doubt; 23)"
tgt = "Rattus norvegicus"
value_kind = "Activity"
experimental_result = ">5 mg/kg"


The recorded Activity for entry COc1cc(N)c(Cl)cc1C(=O)NC1CC(C)N2CCCCC2C1 (stereo in doubt; 25) equals >1 mg/kg

// Activity lookup, compound = COc1cc(N)c(Cl)cc1C(=O)NC1CCN2C(C)CCCC2C1 (stereo in doubt; 19) [BRL-20627] , result: >5 mg/kg

Per the records, this compound ( COc1cc(N)c(Cl)cc1C(=O)NC1CCCN2CCCC12 (stereo in doubt; 10 (Eq)) ) has Activity equal to >5 mg/kg

Activity measured on COc1cc(N)c(Cl)cc1C(=O)NC1CCN2C(CCCC2c2ccccc2)C1 (stereo in doubt; 22) = >5 mg/kg

Activity in this record for COc1cc(N)c(Cl)cc1C(=O)NC1CCN2CCCC2(C)C1 (stereo not drawn) : >1 mg/kg

According to the records, this compound COc1cc(N)c(Cl)cc1C(=O)NC1CC(C)N2CCCC2C1 (stereo in doubt; 30) displays Activity of >1 mg/kg

The reported value for COc1cc(N)c(Cl)cc1C(=O)NC1CCC2CCCCN2CC1 (stereo not drawn) in terms of Activity is >25 mg/kg

Lab note: COc1cc(N)c(Cl)cc1C(=O)NCC1CC2CCCCN2C1 (stereo not drawn) gave Activity of >25 mg/kg

get_value(item= COc1cc(N)c(Cl)cc1C(=O)NC1CCN2CC(C)CCC2C1 (stereo in doubt; 17) , readout=Activity) returns >5 mg/kg

Record COc1cc(N)c(Cl)cc1C(=O)NCC1CCCN2CCCCC12 (single isomer, unassigned) . Reported Activity: >25 mg/kg
